- Target Of Assay: PI3Kδ (p110δ/p85α) Recombinant Human Protein (Homo sapiens (Human))
- Sequence (O00329 whole entry): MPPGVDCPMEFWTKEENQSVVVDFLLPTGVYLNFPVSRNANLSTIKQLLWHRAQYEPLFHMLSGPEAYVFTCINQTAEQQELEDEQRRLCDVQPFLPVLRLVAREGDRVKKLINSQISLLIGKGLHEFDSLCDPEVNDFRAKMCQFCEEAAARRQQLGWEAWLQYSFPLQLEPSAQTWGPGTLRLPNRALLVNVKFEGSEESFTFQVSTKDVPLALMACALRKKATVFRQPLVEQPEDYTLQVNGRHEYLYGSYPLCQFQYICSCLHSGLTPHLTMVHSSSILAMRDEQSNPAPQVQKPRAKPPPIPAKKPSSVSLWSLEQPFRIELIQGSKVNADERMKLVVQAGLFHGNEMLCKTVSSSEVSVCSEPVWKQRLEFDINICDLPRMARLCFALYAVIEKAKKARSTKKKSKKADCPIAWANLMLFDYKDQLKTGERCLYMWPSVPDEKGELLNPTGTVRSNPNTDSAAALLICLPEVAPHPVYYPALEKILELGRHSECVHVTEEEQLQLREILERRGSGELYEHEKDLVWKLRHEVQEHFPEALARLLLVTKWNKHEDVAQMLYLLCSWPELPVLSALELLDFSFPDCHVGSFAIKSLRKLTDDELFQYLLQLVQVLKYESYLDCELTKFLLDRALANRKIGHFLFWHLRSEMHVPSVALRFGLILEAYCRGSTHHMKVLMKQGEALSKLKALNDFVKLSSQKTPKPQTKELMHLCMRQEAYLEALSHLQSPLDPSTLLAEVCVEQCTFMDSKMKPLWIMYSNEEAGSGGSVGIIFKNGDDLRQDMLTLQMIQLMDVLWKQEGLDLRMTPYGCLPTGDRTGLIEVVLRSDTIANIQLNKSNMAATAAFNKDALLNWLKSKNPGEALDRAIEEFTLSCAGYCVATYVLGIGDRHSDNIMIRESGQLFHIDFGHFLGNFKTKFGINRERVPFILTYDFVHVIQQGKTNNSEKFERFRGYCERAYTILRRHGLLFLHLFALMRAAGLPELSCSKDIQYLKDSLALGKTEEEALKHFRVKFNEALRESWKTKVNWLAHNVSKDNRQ
- Sequence (P27986 whole entry partner): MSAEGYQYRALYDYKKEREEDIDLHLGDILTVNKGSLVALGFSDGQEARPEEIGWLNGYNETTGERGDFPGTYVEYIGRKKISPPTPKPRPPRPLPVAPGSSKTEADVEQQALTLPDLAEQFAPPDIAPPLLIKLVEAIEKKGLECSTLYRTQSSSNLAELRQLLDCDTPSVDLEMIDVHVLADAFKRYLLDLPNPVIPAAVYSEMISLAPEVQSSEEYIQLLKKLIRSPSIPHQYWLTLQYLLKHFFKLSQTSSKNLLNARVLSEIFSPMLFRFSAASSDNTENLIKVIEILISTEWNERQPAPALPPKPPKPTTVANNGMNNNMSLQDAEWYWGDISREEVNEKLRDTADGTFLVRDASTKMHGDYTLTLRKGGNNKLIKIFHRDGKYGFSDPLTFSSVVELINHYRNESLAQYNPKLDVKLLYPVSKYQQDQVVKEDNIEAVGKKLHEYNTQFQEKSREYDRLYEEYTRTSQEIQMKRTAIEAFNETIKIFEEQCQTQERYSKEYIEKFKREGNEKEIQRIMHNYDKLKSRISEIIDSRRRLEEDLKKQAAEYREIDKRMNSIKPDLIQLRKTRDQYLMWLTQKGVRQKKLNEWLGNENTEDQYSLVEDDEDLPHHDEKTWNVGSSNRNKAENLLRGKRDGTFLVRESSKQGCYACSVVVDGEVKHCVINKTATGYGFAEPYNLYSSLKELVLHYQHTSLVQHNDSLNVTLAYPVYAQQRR
- Assay Remarks: PI3Kδ Scintillation Proximity Assay
- Format: biochemical
pIC50: −log10 of the molar value. Structures can show the parent of a compound that is named as a salt.
Documented pIC50 across a set of molecules

{"columns": ["Molecule", "Target Of Assay", "pIC50"],
 "data": [
  ["C[C@]1(O)CC[C@H](NS(=O)(=O)c2cc(-c3cnc4c(N)ncnn34)ccc2F)CC1", "PI3Kδ (p110δ/p85α) Recombinant Human Protein (Homo sapiens (Human))", "6.30 to 7.00"],
  ["Cc1ccc(S(=O)(=O)NC2CN(CCO)C2)cc1-c1cnc2c(N)nc(C(F)(F)F)nn12 [Example 329, trifluoroacetate salt]", "PI3Kδ (p110δ/p85α) Recombinant Human Protein (Homo sapiens (Human))", "6.30 to 7.00"],
  ["Cc1ccc(S(=O)(=O)N2CC3NCC2C3O)cc1-c1cnc2c(N)nc(C(F)(F)F)nn12 (stereo not drawn)", "PI3Kδ (p110δ/p85α) Recombinant Human Protein (Homo sapiens (Human))", "6.30 to 7.00"]
]}
